B1: S100A14 (parent)
chain: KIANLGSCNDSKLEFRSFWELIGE

variants of: B1; experiment: protein stability index of a GFP-peptide fusion (GPS, HEK-293T) (PSI 1-6); higher = more stable; settings: c terminus: a fixed tail appended;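 note: lentivirally expressed fusions sorted by FACS into six bins by GFP to DsRed ratio, PSI derived from sequencing read proportions per bin multiplied by bin number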
Below is a list of entries, each paired with its recorded protein stability index value.

MUTANT DESIGNATION: W19F
protein stability index: 2.03
//
MUTANT DESIGNATION: E14H
protein stability index: 1.71
//
MUTANT DESIGNATION: K12M
protein stability index: 2.21
//
MUTANT DESIGNATION: S11M
protein stability index: 1.4
//
MUTANT DESIGNATION: F15T
protein stability index: 2.1
//
MUTANT DESIGNATION: D10I
protein stability index: 1.72
//
MUTANT DESIGNATION: I2M
protein stability index: 1.99
//
MUTANT DESIGNATION: L21A
protein stability index: 2.74
//
MUTANT DESIGNATION: S7D
protein stability index: 1.96
//
MUTANT DESIGNATION: G6A
protein stability index: 2.11
//
MUTANT DESIGNATION: L21C
protein stability index: 1.62
//
MUTANT DESIGNATION: S11K
protein stability index: 1.69
//
MUTANT DESIGNATION: G23P
protein stability index: 2.04
//
MUTANT DESIGNATION: C8W
protein stability index: 1.12
//
MUTANT DESIGNATION: S7L
protein stability index: 1.79
//
MUTANT DESIGNATION: I22C
protein stability index: 1.9
//
MUTANT DESIGNATION: W19E
protein stability index: 3.25
//
MUTANT DESIGNATION: R16W
protein stability index: 2.25
//
MUTANT DESIGNATION: D10P
protein stability index: 1.64
//
MUTANT DESIGNATION: G6R
protein stability index: 1.92
//
MUTANT DESIGNATION: L13S
protein stability index: 2.52
//
MUTANT DESIGNATION: I22W
protein stability index: 1.67
//
MUTANT DESIGNATION: R16P
protein stability index: 2.28
//
MUTANT DESIGNATION: S17W
protein stability index: 2.28
//
MUTANT DESIGNATION: E20S
protein stability index: 1.94
//
MUTANT DESIGNATION: N4V
protein stability index: 1.98
//
MUTANT DESIGNATION: L21S
protein stability index: 1.86
//
MUTANT DESIGNATION: E14S
protein stability index: 1.8
//
MUTANT DESIGNATION: E24F
protein stability index: 1.88
//
MUTANT DESIGNATION: D10T
protein stability index: 1.95
//
MUTANT DESIGNATION: K1S
protein stability index: 2.19
//
MUTANT DESIGNATION: N4Q
protein stability index: 1.72
//
MUTANT DESIGNATION: L13N
protein stability index: 1.88
//
MUTANT DESIGNATION: F15K
protein stability index: 1.88
//
MUTANT DESIGNATION: W19H
protein stability index: 2.74
//
MUTANT DESIGNATION: E20D
protein stability index: 2.56
//
MUTANT DESIGNATION: W19P
protein stability index: 3.25
//
MUTANT DESIGNATION: L21N
protein stability index: 2.55
//
MUTANT DESIGNATION: A3D
protein stability index: 1.97
//
MUTANT DESIGNATION: L13Q
protein stability index: 1.92

The reported numbers originate from the supplement of paper PMC10567573.
